The measured values listed here are drawn from ChEMBL document CHEMBL1157005.

# target under test: Adenosylhomocysteinase (Plasmodium falciparum 3D7, UniProt P50250)
# Sequence (P50250 whole entry): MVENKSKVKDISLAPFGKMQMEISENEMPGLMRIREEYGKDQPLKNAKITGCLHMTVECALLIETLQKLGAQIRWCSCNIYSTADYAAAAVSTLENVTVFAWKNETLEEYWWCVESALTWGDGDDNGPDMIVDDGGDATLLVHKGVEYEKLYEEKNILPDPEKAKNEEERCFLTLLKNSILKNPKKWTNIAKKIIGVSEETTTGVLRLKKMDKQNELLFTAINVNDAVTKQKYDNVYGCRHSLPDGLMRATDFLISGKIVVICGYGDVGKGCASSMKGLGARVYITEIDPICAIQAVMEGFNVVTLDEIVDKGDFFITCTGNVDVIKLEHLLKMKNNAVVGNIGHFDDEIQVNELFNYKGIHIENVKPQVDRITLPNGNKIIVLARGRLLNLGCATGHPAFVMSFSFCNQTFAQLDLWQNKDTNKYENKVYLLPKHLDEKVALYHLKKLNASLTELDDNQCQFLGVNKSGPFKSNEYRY
# assay protocol: Inhibition of Plasmodium falciparum S-adenosyl-homocysteine hydrolase
pIC50: −log10 of the molar value.
measurement name: pIC50

> print(dat)
                                   molecule                         target.under.test  measured.value
1  Nc1ncnc2c1ncn2[C@@H]1C[C@H](O)[C@@H](O)[C@H]1O [NORARISTEROMYCIN]  Adenosylhomocysteinase (Plasmodium falciparum 3D7, UniProt P50250)            5.96
